The reported measurements were obtained from PubChem BioAssay (NCI).

tested on: CAKI-1 renal; test: NCI tumour cell line growth inhibition, 48 h
GI50: recorded values

O=C1c2c(O)cccc2C(C(=O)CCCCC(=O)C2c3cccc(O)c3C(=O)c3c(O)cccc32)c2cccc(O)c21
3.24 µM
CCOC(=O)c1[nH]c2c(c1C)-c1[nH]c(=O)c(S(=O)(=O)c3ccccc3)cc1SC2
54.1 µM
Cc1nn(-c2ccccc2)c2c1C1C(=C(c3ccc(Cl)cc3)N2)C(=O)Nc2ccccc21 (configuration not stated)
3.04 µM
Oc1ccc2ccccc2c1-c1nnc(CCCCCCCCc2nnc(-c3c(O)ccc4ccccc34)o2)o1
0.698 µM
COc1ccc2nc3ccc(OC)cc3c(SCCCN)c2c1
9.79 µM

// sample CC1Cc2c(N(C)C)ncnc2N(C)c2ccc(Cl)cc21 (configuration not stated) , its GI50 was 3.12 µM

// sample "O=C1C=C(Nc2cccc(Br)c2)c2ccccc2C1=O" , its GI50 was 4.16 µM

// sample "COc1ccc(C[C@H]2C[C@@H](O)[C@@H](C)C/C=C/Cc3cccc(O)c3C(=O)O2)cn1" , its GI50 was 21.8 µM

// sample "Cc1ccc(NCSc2ccc(Cl)cc2)cc1" , its GI50 was 5.51 µM

// sample "O=C1OC(c2ccc(O)cc2)(c2ccc(O)cc2)c2cccc3cccc1c23" , its GI50 was 18.1 µM

// sample "COc1cccc(-c2nn(-c3ccccc3)cc2-c2ccnc(NCCNC(=O)Nc3ccc(Cl)c(Cl)c3)c2)c1" , its GI50 was 2.79 µM

// sample "c1ccc2c(c1)nc(NCCN1CCNCC1)c1c3ccccc3[nH]c21" , its GI50 was 0.454 µM

----------
system: SK-MEL-2 melanoma; assay: NCI tumour cell line growth inhibition, 48 h
TGI: recorded values
Entry rule: numbers only, all in µM.

Look over these answered cases.
[N-]=[N+]=NC1(c2ccccc2)C(=O)Nc2ccccc2C1=O (stereo not given)
67.3
CCCC/C(=N\N=C(N)N)c1ccc(F)cc1
9.4

// sample CCCCCCCCCCCCOC1C(COCCN2CCCC2)OC2OC(C)(C)OC21 (stereo not given) , its TGI was 3.09

----------
test system: EKVX NSCLC; assay: NCI tumour cell line growth inhibition, 48 h
value kind: TGI

// sample "O=C(/C=C/N1CCN(c2cccc(C(F)(F)F)c2)CC1)c1ccc(Cl)cc1Cl" , its TGI was 65.4 µM

// sample Cc1ccc(C2=Nc3c(N)ncnc3NC(c3cccc(Nc4ccnc5cc(C(F)(F)F)ccc45)c3)C2)cc1 (stereo not given) , its TGI was > 100 µM

// sample "CC(=O)[CH-]C(=O)c1ccccc1.CC(=O)[CH-]C(=O)c1ccccc1.[O]=[U+2]=[O]" , its TGI was > 100 µM

// sample "CSc1c(C(C)=O)c(O)n(-c2ccc(Cl)cc2)c(=O)c1C#N" , its TGI was > 100 µM

// sample Cc1cccc(NC(=O)CC(=O)N2N=C(N3c4ccccc4Sc4ccccc43)CC2c2ccccc2)c1 (stereo not given) , its TGI was > 100 µM

----------
test system: EKVX NSCLC; assay: NCI tumour cell line growth inhibition, 48 h
value kind: TGI (µM)
Entry rule: numbers only, all in µM.

CC1=NNC(N)=N/C1=C/C(Sc1ccc(Cl)cc1)c1cccs1 (centres undefined)
30.3
CCCCN(CCCC)C(=NCc1ccccc1)NC#N
73.5
C#CC(C)(C)Oc1cc(OC)c2c(=O)c3ccccc3n(C)c2c1
74.5
Cc1cc(NS(=O)(=O)c2ccc(Nc3c4ccccc4nc4c(C(=O)NCCN(C)C)ccc(Cl)c34)cc2)no1
21.2
CCOC(=O)c1c2c(n(C)c1-c1ccccc1)C(=O)C(C)=CC2=O
20.5

# evaluate next
// sample CC1=NN(c2ccc(C)cc2)C2(C1)SCC(=O)N2c1nc2ccccc2s1 (centres undefined) , its TGI was 99.1

----------
system: HT29 colon; experiment: NCI tumour cell line growth inhibition, 48 h
TGI: recorded values

Look over these answered cases.
COc1cc(OC)c(CSCC(NC(=O)OCC2c3ccccc3-c3ccccc32)C(=O)O)c(OC)c1 (stereo not given)
> 10 µM
CCOC(=O)c1cnc2[nH]c(=O)c3ccccc3n2c1=O
> 100 µM
Cc1cc(NS(=O)(=O)c2ccc(Nc3c4ccccc4nc4c(C(=O)NCCN(C)C)ccc(Cl)c34)cc2)no1
14.4 µM
COc1cn2c(cc1=O)COc1ccc(-c3ccccc3)cc1-2
> 100 µM

# evaluate next
// sample "CCOC(=O)c1[nH]c2c(c1C)-c1[nH]c(=O)c(S(=O)(=O)c3ccccc3)cc1SC2" , its TGI was > 100 µM

----------
tested on: IGROV1 ovarian; assay: NCI tumour cell line growth inhibition, 48 h
TGI: recorded values

Look over these answered cases.
Cc1nc2c(n1Cc1ccc(Cl)cc1)C(=O)c1ccccc1C2=O
> 75 µM
O=C1c2cc(Cl)ccc2-n2c(noc2=O)C2CSCN12 (stereo not drawn)
> 100 µM
Cc1cccc(NC(=O)CC(=O)N2N=C(N3c4ccccc4Sc4ccccc43)CC2c2ccccc2)c1 (stereo not drawn)
> 100 µM
O=C1c2ccccc2-c2cc3ccccc3c(=O)n21
> 100 µM
COc1ccc(S(=O)(=O)N/N=C/C(=O)O)cc1
1060 µM

// sample "C/C(=N\N=C(N)N)c1c(C(=O)OCCCCCCOC(=O)c2nc3sccn3c2/C(C)=N/N=C(N)N)nc2sccn12" , its TGI was > 100 µM

// sample "O=C(c1cccs1)N(C(=S)N1CCN(c2ccccc2)CC1)c1ccccc1" , its TGI was > 100 µM

// sample "CC[C@]12C=CCN3CC[C@]4(C(=C(C(=O)OC)C1)Nc1cc(O)ccc14)[C@@H]32" , its TGI was 57.3 µM

----------
test system: NCI-H460 lung; experiment: NCI tumour cell line growth inhibition, 48 h
value kind: TGI

Look over these answered cases.
NC(Cc1nn[nH]n1)C(=O)O (stereo unspecified)
> 100 µM
CC1=NN(c2nc(N)nc(/C(C#N)=C/c3ccncc3)n2)C(C)(C)C1
> 100 µM
c1ccc(SCCCC(Sc2ccccc2)Sc2ccccc2)cc1
> 100 µM
Cc1cc(S(=O)(=O)Nc2n[nH]c(Nc3ccccc3)n2)c(S)cc1Cl
> 10 µM
Oc1cccc(-c2nc3ccccc3s2)c1
> 100 µM

// sample CCOC(=O)CCC1(C(=O)OC)CCCC1=O (stereo unspecified) , its TGI was > 100 µM

----------
test system: KM12 colon; assay: NCI tumour cell line growth inhibition, 48 h
Where a SMILES comes first, the peptide text is derived from it. [ ]: non-standard residue; d: D form. The star is where a group is joined. ξ: configuration not given here. NMeY = CN[C@@H](Cc1ccc(O)cc1)C(=O)O; Cbz = O=C(OCc1ccccc1)*; ξA = CC(N)C(=O)O
TGI: recorded values

// sample "NC(N)=N/N=C(\c1ccc(Cl)cc1)C1CC1" , its TGI was 35.8 µM

// sample O=C1c2cc(Cl)ccc2-n2c(noc2=O)C2CSCN12 (stereo unspecified) , its TGI was > 100 µM

// sample COc1ccc(C[C@@H](C(=O)NCC(N)=O)N(C)C(=O)[C@@H]2CCCN2C(=O)[C@H](CC(C)C)NC(=O)C(C)NC(=O)OCc2ccccc2)cc1 (stereo partly specified) (Cbz-[ξA]LP[NMeY](Me)G-NH2) , its TGI was > 100 µM

// sample COc1cc(C(c2cc3c(cc2O)OCO3)N2CCCC2)cc(OC)c1OC (stereo unspecified) , its TGI was 37.2 µM

// sample "O=C1c2ccccc2S(=O)(=O)c2ccccc21" , its TGI was > 100 µM

// sample "CN(C)CCCn1c2ccccc2c2cnccc21" , its TGI was > 100 µM

// sample "CCCCn1cc(C(=O)O)c(=O)c2c3sccc3ccc21" , its TGI was > 100 µM

// sample "Oc1c2cccc1Cc1cccc3c1OCCOCCOCCOCCOc1c(cccc1Cc1cccc(c1O)C3)C2" , its TGI was > 100 µM

// sample C=C(CCOC)CCC1CCCCC(=C)C1=O (stereo unspecified) , its TGI was > 100 µM

// sample "CCN(CC)CCC(=O)Nc1ccc(Cn2nnc3c2C(=O)c2nnn(Cc4ccc(NC(=O)CCN(CC)CC)cc4)c2C3=O)cc1" , its TGI was 2.46 µM

// sample O=c1[nH]c(=O)n(C2CC(O)C(CO)O2)cc1C#Cc1ccc(C(F)(F)F)cc1 (stereo unspecified) , its TGI was > 100 µM

----------
TGI: recorded values
system: RPMI-8226 leukemia; test: NCI tumour cell line growth inhibition, 48 h
Entry rule: numbers only, all in µM.

Look over these answered cases.
CN1C(=O)c2cc(Cl)nc3c(NC(=O)c4cccc(Cl)c4)c(Cl)c(NC(=O)c4cccc(Cl)c4)c1c23
32.6
CC1CN=C(c2cccc(OCc3ccc(COc4cccc(C5=NCC(C)N5)c4)cc3)c2)N1 (stereo not given)
45.4

TGI value, target or system RPMI-8226 leukemia, for "CC[C@]12C=CCN3CC[C@]4(C(=C(C(=O)OC)C1)Nc1cc(O)ccc14)[C@@H]32" : 79.8
